# TESTED ON: human kinase Akt1 (Homo sapiens, UniProt P31749)
# Sequence (P31749 whole entry): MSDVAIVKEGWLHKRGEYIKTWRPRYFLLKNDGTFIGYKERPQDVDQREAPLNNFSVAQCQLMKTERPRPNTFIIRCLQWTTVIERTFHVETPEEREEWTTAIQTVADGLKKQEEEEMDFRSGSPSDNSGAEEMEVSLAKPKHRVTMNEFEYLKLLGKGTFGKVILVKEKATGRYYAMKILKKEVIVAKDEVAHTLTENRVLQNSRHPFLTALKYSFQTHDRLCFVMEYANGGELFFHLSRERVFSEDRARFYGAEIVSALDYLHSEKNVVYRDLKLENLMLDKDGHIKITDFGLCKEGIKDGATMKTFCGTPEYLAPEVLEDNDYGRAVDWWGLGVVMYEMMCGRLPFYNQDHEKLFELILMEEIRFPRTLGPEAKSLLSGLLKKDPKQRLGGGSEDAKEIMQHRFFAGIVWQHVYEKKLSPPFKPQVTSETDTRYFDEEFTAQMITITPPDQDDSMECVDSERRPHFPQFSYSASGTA
pIC50: −log10 of the molar value.
OBSERVABLE: pIC50

Exam item: Please give the measured pIC50 for this compound: `COC(=O)/C=C/C(=O)c1ccc(OC)cc1`
Marked response: < 3.19

====

# TESTED ON: PknH (Mycobacterium tuberculosis)
# Sequence (P9WI71 whole entry): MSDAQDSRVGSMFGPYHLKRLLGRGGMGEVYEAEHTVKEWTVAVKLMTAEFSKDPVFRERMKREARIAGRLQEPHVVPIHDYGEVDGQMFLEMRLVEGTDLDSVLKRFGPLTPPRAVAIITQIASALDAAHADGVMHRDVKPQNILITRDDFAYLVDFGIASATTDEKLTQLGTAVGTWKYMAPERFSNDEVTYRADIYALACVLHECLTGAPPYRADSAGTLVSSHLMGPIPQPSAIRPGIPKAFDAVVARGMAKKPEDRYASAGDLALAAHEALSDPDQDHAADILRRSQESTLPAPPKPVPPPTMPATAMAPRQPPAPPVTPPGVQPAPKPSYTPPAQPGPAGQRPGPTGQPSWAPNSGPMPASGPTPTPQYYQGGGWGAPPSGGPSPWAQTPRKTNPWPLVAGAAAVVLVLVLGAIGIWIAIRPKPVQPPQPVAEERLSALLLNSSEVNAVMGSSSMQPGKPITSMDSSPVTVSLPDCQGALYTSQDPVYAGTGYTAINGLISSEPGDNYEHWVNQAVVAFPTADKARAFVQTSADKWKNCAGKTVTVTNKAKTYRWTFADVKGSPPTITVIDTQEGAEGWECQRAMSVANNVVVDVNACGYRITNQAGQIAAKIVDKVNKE
pIC50: −log10 of the molar value.
OBSERVABLE: pIC50

Exam item: Consider the compound `COC(=O)/C=C/C(=O)c1ccc(OC)cc1` and give its measured pIC50.
Marked response: < 3.19

====

# TESTED ON: PknG (Mycobacterium tuberculosis, UniProt P9WI73)
# Sequence (P9WI73 whole entry): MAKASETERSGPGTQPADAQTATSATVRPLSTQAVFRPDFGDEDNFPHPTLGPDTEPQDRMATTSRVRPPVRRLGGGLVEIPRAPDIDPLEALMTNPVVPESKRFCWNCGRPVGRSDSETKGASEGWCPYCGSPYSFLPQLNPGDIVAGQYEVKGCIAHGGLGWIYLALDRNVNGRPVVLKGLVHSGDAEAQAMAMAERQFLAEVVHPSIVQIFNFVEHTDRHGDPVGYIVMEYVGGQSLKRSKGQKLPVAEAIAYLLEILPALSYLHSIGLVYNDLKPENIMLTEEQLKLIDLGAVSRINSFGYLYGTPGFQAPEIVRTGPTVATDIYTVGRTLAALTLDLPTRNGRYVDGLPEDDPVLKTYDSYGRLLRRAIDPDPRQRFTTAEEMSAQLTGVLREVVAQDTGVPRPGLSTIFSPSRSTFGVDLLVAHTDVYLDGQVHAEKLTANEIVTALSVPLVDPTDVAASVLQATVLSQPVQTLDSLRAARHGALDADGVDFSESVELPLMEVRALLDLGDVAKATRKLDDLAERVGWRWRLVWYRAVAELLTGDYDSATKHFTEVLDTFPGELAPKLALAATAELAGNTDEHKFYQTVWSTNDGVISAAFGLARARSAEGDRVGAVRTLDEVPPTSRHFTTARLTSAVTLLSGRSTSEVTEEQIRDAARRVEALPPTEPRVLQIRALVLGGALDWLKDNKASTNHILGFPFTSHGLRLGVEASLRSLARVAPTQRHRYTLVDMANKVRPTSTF
OBSERVABLE: IC50 (µM)
Report as a plain number; the unit µM is understood.

Exam item: For `COC(=O)/C=C/C(=O)c1ccc(OC)cc1` , what is its reported IC50?
Marked response: 349

====

# TESTED ON: PknB (Mycobacterium tuberculosis, UniProt P9WI81)
# PROTOCOL DESCRIPTION: Surface plasmon resonance (BIAcore) binding to PknB
# Design: species or system M. tuberculosis
# CONDITION DETAILS: single cycle kinetics, 1:1 binding model, 25 °C, read-out: Kd for binding to PknB (SPR)
# Sequence (P9WI81 11-274 limits assumed): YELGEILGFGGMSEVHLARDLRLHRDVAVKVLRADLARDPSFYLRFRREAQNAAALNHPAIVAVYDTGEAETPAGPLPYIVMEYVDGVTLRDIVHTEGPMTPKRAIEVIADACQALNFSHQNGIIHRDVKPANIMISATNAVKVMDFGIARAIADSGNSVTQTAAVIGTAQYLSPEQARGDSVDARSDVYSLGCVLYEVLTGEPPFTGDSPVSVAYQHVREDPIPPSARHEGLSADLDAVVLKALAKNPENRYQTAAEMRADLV
OBSERVABLE: pKd
In textbook form, pKd equals minus log to base ten of the concentration in mol/L.

Exam item: Need pKd of `COC(=O)/C=C/C(=O)c1ccc(OC)cc1` , thanks.
Marked response: 4.60

====

# TESTED ON: PknB (Mycobacterium tuberculosis)
# PROTOCOL DESCRIPTION: biochemical
# Format: binding, M. tuberculosis
# Sequence (P9WI81 1-279 limits assumed): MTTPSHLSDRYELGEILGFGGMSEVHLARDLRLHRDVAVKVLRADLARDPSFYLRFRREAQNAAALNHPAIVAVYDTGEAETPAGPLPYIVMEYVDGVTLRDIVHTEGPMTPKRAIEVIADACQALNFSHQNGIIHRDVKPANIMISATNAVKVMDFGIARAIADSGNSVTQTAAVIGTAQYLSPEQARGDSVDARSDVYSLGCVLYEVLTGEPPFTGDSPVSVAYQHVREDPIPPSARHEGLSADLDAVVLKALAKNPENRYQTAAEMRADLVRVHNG
OBSERVABLE: pKd
For clarity, pKd is expressed as the negative log10 of concentration in mol/L.

Exam item: For `COC(=O)/C=C/C(=O)c1ccc(OC)cc1` , what is its reported pKd?
Marked response: 4.87

====

# TESTED ON: PknA (Mycobacterium tuberculosis)
# Sequence (P9WI83 1-431): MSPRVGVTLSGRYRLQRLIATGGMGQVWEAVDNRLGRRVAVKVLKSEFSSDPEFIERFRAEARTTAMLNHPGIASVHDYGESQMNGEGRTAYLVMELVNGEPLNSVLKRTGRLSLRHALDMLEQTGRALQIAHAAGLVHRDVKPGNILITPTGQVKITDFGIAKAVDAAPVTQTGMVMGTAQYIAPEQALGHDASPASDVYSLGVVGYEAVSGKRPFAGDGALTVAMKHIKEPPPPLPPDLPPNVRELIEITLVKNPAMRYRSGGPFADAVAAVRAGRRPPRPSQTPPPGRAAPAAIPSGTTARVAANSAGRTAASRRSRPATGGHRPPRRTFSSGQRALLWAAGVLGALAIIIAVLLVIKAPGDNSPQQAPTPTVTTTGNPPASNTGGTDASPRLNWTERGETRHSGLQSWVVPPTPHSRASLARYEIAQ
OBSERVABLE: pIC50
Lab note — pIC50 values are minus log10 of concentrations in M.

Exam item: Consider the compound shown here: `COC(=O)/C=C/C(=O)c1ccc(OC)cc1` What is its recorded pIC50?
Marked response: 4.35

====

# PROTOCOL DESCRIPTION: in vitro
# CONDITION DETAILS: human
OBSERVABLE: CC50 at 48 h (mg/L)
Numbers only here, please. The scale is mg/L.

Exam item: Any idea what its CC50 at 48 h is? The compound is COC(=O)/C=C/C(=O)c1ccc(OC)cc1 [IMB-YH-8]
Marked response: 7.61

====

# TESTED ON: PknF (Mycobacterium tuberculosis)
# Sequence (P9WI75 whole entry): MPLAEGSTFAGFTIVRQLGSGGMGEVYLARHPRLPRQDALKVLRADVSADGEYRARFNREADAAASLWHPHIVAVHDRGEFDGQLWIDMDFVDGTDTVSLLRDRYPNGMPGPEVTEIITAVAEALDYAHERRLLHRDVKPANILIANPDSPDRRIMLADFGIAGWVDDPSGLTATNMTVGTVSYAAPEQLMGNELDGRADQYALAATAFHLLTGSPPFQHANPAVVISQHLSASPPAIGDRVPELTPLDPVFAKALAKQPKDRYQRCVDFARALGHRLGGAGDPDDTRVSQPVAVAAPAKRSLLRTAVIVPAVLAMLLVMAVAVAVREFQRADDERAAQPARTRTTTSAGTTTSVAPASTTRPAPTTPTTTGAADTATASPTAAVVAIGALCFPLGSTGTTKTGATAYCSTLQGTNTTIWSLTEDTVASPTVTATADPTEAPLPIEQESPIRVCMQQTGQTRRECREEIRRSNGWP
OBSERVABLE: IC50 (µM)
Respond numerically; units are µM and should not be typed.

Exam item: Query (molecule): `COC(=O)/C=C/C(=O)c1ccc(OC)cc1` ; field requested: IC50
Marked response: 503
